The measurements presented in this section are drawn from patent US20210395239A1.

Target: hTLR9 (Homo sapiens)
Sequence (Q9NR96 26-1032): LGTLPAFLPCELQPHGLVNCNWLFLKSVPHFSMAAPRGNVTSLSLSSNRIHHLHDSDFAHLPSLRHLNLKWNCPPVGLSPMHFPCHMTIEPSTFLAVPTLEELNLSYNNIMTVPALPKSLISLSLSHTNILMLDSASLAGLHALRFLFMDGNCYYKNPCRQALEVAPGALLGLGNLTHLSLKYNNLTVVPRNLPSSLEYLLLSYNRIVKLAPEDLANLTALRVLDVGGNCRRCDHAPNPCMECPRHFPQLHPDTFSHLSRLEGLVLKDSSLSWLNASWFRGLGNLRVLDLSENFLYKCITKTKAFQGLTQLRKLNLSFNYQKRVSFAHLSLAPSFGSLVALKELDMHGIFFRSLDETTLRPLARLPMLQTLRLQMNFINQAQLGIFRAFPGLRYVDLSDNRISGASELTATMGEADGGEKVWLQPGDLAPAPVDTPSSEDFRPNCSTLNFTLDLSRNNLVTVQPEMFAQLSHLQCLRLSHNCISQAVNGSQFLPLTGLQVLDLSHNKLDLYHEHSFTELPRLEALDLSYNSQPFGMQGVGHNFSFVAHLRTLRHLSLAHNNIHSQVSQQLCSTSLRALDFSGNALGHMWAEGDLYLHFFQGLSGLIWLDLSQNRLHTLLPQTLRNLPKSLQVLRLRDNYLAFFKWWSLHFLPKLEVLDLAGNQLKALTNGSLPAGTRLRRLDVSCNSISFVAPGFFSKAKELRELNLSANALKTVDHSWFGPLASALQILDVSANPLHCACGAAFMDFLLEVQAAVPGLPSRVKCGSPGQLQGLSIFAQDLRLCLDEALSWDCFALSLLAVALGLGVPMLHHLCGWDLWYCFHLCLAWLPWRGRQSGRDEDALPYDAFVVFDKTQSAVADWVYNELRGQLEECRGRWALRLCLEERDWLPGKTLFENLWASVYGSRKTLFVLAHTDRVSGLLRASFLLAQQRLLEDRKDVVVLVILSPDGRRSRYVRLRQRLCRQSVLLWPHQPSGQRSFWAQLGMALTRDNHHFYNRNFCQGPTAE
Test: HEK293-Blue-hTLR-9 cells assay (SEAP reporter, ODN2006 stimulation)
Type: cell-based
Set-up: host or cells: HEK293 (HEK-Blue hTLR9)
Settings: HEK293-Blue-hTLR9 cells, ODN2006, 20 hrs; read-out: HEK/hTLR9 IC50
observable: IC50 (nM)

For the compound C[C@@H]1CN(c2ccc(C#N)n3nccc23)C[C@H](CN2CC(c3ccc(N4CC(C)(N)C4)nc3)C2)O1 [Example 157] , what IC50 is on record?
31

Data request, read-out IC50, for Cc1cc(N2CCN(C[C@H]3CN(c4ccc(C#N)c5ncccc45)C[C@@H](C)O3)CC2)nc(N[C@@H]2CNC[C@H]2F)n1 [Example 76]
50

Which IC50 is listed for Cc1cc(N2CCN(C[C@H]3CN(c4ccc(C#N)c5ncccc45)C[C@@H](C)O3)CC2)nc(N2CCOCC(N)C2)n1 (stereo partly shown) [Example 56] ?
34

Field request: IC50 | item: C[C@@H]1CN(c2ccc(C#N)c3ncccc23)C[C@H](CN2CCN(c3ccnc(N4CCN(C(=O)[C@@H]5CCCN5)CC4)n3)CC2)O1 [Example 31]
46

Could you share which IC50 value was measured for CO[C@H]1CN(c2nc(C)cc(N3CCN(C[C@H]4CN(c5ccc(C#N)c6ncccc56)C[C@@H](C)O4)CC3)n2)C[C@H]1N [Example 60] ?
32

I. CO[C@@H]1CN(c2nccc(N3CCN(C[C@H]4CN(c5ccc(C#N)c6ncccc56)C[C@@H](C)O4)CC3)n2)C[C@@H]1N [Example 92]
II. C[C@@H]1CN(c2ccc(C#N)c3ncccc23)C[C@H](CN2CCN(c3cccc(N[C@H]4CNC[C@H]4F)n3)CC2)O1 [Example 37]
III. Cc1cc(N2CCNCC2)nc(N2CCN(C[C@H]3CN(c4ccc(C#N)c5ncccc45)C[C@@H](C)O3)CC2)n1 [Example 68]
Task field, ranking: reported IC50, descending order. Please reply with the labels ordered as requested. Many thanks.
II, III, I
